These entries and their values trace back to patent US20250242064A1.

# protocol description: in vivo
# Set-up: species or system mice
# measurement setup: male, NOD.Cg-Rag1tm1Mom Il2rgtm1Wjl/SzJ (NRG), mouse, iv, total radioactivity, Biodistribution: Pancreas
Where a SMILES comes first, the peptide text is derived from it. Bridges are numbered along the chain shown (N, C = ends). [ ]: non-standard residue; d: D form. The star is where a group is joined. X1 = O=C(O)CN1CCN(CC(=O)O)CCN(CC(=O)N[C@@H](CS(=O)(=O)O)C(=O)N[C@@H](CCCCNC(=O)CCCc2ccc(I)cc2)C(=O)*)CCN(CC(=O)O)CC1; 2Nal = N[C@@H](Cc1ccc2ccccc2c1)C(=O)O; Lys(iPr) = CC(C)NCCCC[C@H](N)C(=O)O

compound	tissue uptake at 1 h
CC(C)NCCCC[C@H](NC(=O)[C@H]1CCC(=O)N[C@@H](CCCCNC(=O)[C@H](CCCCNC(=O)CCCc2ccc(I)cc2)NC(=O)[C@H](CS(=O)(=O)O)NC(=O)CN2CCN(CC(=O)O)CCN(CC(=O)O)CCN(CC(=O)O)CC2)C(=O)N[C@@H](Cc2ccc(O)cc2)C(=O)N[C@@H](CCCCNC(C)C)C(=O)N[C@H](CCCNC(=N)N)C(=O)N[C@@H](Cc2ccc3ccccc3c2)C(=O)N[C@H](C)C(=O)N1)C(N)=O [[^68Ga]Ga-BL34L11, metal not drawn] (K(X1)Y[Lys(iPr)][dR][2Nal][dA][dE][Lys(iPr)]-NH2; lactam N-7)	1.67 %ID/g

* * *

The following molecules are shown together with reported tissue uptake at 1 h values.
# protocol description: in vivo
# Set-up: species or system mice
# measurement setup: male, NOD.Cg-Rag1tm1Mom Il2rgtm1Wjl/SzJ (NRG), mouse, iv, total radioactivity, Biodistribution: Z138 Tumor
Where a SMILES comes first, the peptide text is derived from it. Bridges are numbered along the chain shown (N, C = ends). Side-chain parts run from the residue outwards. [ ]: non-standard residue; d: D form. The star is where a group is joined. X5 = O=C(O)CN1CCN(CC(=O)O)CCN(CC(=O)N[C@@H](CS(=O)(=O)O)C(=O)N[C@@H](CCCCNC(=O)CCCc2ccc(Cl)cc2)C(=O)*)CCN(CC(=O)O)CC1; DOTA = O=C(O)CN1CCN(CC(=O)O)CCN(CC(=O)*)CCN(CC(=O)O)CC1; NMeLys(iPr) = CN[C@@H](CCCCNC(C)C)C(=O)O; 2Nal = N[C@@H](Cc1ccc2ccccc2c1)C(=O)O; Lys(iPr) = CC(C)NCCCC[C@H](N)C(=O)O; Cya = N[C@@H](CS(=O)(=O)O)C(=O)O

molecule	tissue uptake at 1 h
CC(C)NCCCC[C@H](NC(=O)[C@H]1CCC(=O)N[C@@H](CCCCNC(=O)[C@H](CCCCNC(=O)CCCc2ccc(Cl)cc2)NC(=O)[C@H](CS(=O)(=O)O)NC(=O)CN2CCN(CC(=O)O)CCN(CC(=O)O)CCN(CC(=O)O)CC2)C(=O)N[C@@H](Cc2ccc(O)cc2)C(=O)N[C@@H](CCCCNC(C)C)C(=O)N[C@H](CCCNC(=N)N)C(=O)N[C@@H](Cc2ccc3ccccc3c2)C(=O)N[C@H](C)C(=O)N1)C(N)=O [[^68Ga]Ga-BL34L16, metal not drawn] (K(X5)Y[Lys(iPr)][dR][2Nal][dA][dE][Lys(iPr)]-NH2; lactam N-7)	10.1 %ID/g
CC(C)NCCCC[C@H](NC(=O)[C@H]1CCC(=O)N[C@@H](CCCCNC(=O)[C@H](CS(=O)(=O)O)NC(=O)CN2CCN(CC(=O)O)CCN(CC(=O)O)CCN(CC(=O)O)CC2)C(=O)N[C@@H](Cc2ccc(O)cc2)C(=O)N(C)[C@@H](CCCCNC(C)C)C(=O)N[C@H](CCCNC(=N)N)C(=O)N[C@@H](Cc2ccc3ccccc3c2)C(=O)N[C@H](C)C(=O)N1)C(N)=O [[^68Ga]Ga-BL34N1, metal not drawn] (K([Cya-DOTA])Y[NMeLys(iPr)][dR][2Nal][dA][dE][Lys(iPr)]-NH2; lactam N-7)	12 %ID/g
